Assay: amyloid nucleation score (Sup35N fusion, yeast selection) (log enrichment); library NNK1; higher = more nucleation; inactive = no reads after selection;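 also: zero at mode of non-aggregating sequences after 7 days selection at 30°C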
assay.metric: amyloid nucleation score

Below: 5 substances and their reported amyloid nucleation score.
Q: Dear colleague, I am looking for the recorded amyloid nucleation score of the following substance: YSGCRTPDTVSVVTSTHAEY
Ans: inactive

Q: Dear colleague, I am looking for the recorded amyloid nucleation score of the following substance: NNKDISYGREAGGYEVERKD
Ans: -0.907

Q: Dear colleague, I am looking for the recorded amyloid nucleation score of the following substance: WCFVTHLLLCFLLDDKNFTW
Ans: inactive

Q: Dear colleague, I am looking for the recorded amyloid nucleation score of the following substance: YLINRRIYVPVYLLALVISL
Ans: -0.189

Q: Dear colleague, I am looking for the recorded amyloid nucleation score of the following substance: LISGKYLYSPTALLDHIL
Ans: 0.484

Report amyloid nucleation score for every entry below.
1. APSNNFCNNGLMFRYVRPGD
2. IWRFIFGFGVYVCNGMALSQ
3. KLNVFDLVNRAKVGHCGSSG
4. FLATYLMEVYMMDSWNF
5. WSISGELFTVVSDWPFCPIG

Ans:
2.81
0.291
0.026
-1.65
inactive

Report amyloid nucleation score for every entry below.
1. SARSWDLQMCFSCLYR
2. ALEWHGQTYSFRIEI
3. GSLFWEVMKVMADGMCDVSL
4. DHLYLMV
5. PTTEWKVVRT
6. SIGYMNLDRVI
7. KAAGMGSCSYTMVNYTPDAG

Ans:
1: 7.28; 2: 0.537; 3: 0.59; 4: 1.04; 5: 0.808; 6: -0.944; 7: 1.39
